- target: MMP-1 (Homo sapiens)
- Construct: purchased Abchem (so in the source)
- Sequence (P03956 100-269 limits assumed): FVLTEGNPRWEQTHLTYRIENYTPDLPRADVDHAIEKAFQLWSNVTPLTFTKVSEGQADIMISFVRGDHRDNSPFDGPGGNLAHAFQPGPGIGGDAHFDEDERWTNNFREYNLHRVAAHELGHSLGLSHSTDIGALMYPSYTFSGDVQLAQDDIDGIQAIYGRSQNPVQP
- experiment.summary: MMP1 Inhibitor Screening Assay Kit (ab139443), colorimetric thiopeptide substrate, OD412
- Format: biochemical
- particulars: remaining enzyme activity, untreated group = 100%; compound at 0.5 uM; n=2
recorded.metric: remaining activity at 0.5 µM (%)

{"compound": "CCCCOc1ccc(S(=O)(=O)N2CCCC2C(=O)NO)cc1 (centres unmarked) [T-29]", "recorded.metric": "remaining activity at 0.5 µM", "quantitative.readout": 100}
{"compound": "O=C(NO)C1CCCCN1S(=O)(=O)c1ccc(C23CC4CC(CC(C4)C2)C3)cc1 (centres unmarked) [T-23]", "recorded.metric": "remaining activity at 0.5 µM", "quantitative.readout": 100}
{"compound": "O=C(NO)C1CCCCN1S(=O)(=O)c1ccccc1 (centres unmarked) [T-01]", "recorded.metric": "remaining activity at 0.5 µM", "quantitative.readout": 34.2}
{"compound": "Cc1cc(C)c(S(=O)(=O)NC(CC(C)C)C(=O)NO)c(C)c1 (centres unmarked) [T-15]", "recorded.metric": "remaining activity at 0.5 µM", "quantitative.readout": 100}
{"compound": "CC(=O)Nc1ccc(S(=O)(=O)N2CCCC2C(=O)NO)cc1 (centres unmarked) [T-40]", "recorded.metric": "remaining activity at 0.5 µM", "quantitative.readout": 100}
{"compound": "CCCCOc1ccc(S(=O)(=O)NC(CC(C)C)C(=O)NO)cc1 (centres unmarked) [T-14]", "recorded.metric": "remaining activity at 0.5 µM", "quantitative.readout": 100}
{"compound": "CCCc1ccc(S(=O)(=O)N2CCCCC2C(=O)NO)cc1 (centres unmarked) [T-24]", "recorded.metric": "remaining activity at 0.5 µM", "quantitative.readout": 78.4}
{"compound": "O=C(NO)C1CCCCN1S(=O)(=O)c1ccc(F)cc1 (centres unmarked) [T-21]", "recorded.metric": "remaining activity at 0.5 µM", "quantitative.readout": 9.2}
{"compound": "CC(C)(C)c1ccc(S(=O)(=O)NC(Cc2ccccc2)C(=O)NO)cc1 (centres unmarked) [T-08]", "recorded.metric": "remaining activity at 0.5 µM", "quantitative.readout": 100}
{"compound": "CC(C)C(NS(=O)(=O)c1ccc(C(C)(C)C)cc1)C(=O)NO (centres unmarked) [T-18]", "recorded.metric": "remaining activity at 0.5 µM", "quantitative.readout": 100}
{"compound": "CC(=O)c1ccc(S(=O)(=O)N2CCCC2C(=O)NO)cc1 (centres unmarked) [T-34]", "recorded.metric": "remaining activity at 0.5 µM", "quantitative.readout": 100}

----------
- target: MMP-2 (Homo sapiens)
- Construct: purchased Abchem (so in the source)
- Sequence (P08253 110-660): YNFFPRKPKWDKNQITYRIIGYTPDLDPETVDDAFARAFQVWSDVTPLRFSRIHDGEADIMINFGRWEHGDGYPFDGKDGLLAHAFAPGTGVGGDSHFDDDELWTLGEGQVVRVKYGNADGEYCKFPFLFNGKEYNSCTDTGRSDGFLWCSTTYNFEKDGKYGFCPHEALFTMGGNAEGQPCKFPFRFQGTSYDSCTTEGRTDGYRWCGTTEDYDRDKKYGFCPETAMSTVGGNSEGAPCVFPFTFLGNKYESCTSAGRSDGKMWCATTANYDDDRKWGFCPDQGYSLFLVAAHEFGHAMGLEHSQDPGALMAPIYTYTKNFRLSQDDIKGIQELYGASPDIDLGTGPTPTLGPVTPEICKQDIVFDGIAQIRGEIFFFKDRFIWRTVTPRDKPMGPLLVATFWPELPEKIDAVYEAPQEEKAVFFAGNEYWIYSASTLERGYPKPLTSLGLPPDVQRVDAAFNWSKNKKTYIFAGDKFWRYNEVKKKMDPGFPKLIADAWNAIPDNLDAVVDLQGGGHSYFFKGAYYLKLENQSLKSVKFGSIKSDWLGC
- experiment.summary: MMP2 Inhibitor Screening Assay Kit (ab139446), colorimetric thiopeptide substrate, OD412
- Type: biochemical
- particulars: inhibition; T-05~20 at 10 uM; read-out: MMP-2 (%) (inhibitory efficacy, high concentration)

{"compound": "Cc1cc(C)c(S(=O)(=O)NC(Cc2ccccc2)C(=O)NO)c(C)c1 (stereo not drawn) [T-10]", "unit.of.measure": "%", "inhibition at 10 µM": 15.5}
{"compound": "O=C(NO)C(Cc1ccccc1)NS(=O)(=O)c1ccc2ccccc2c1 (stereo not drawn) [T-11]", "unit.of.measure": "%", "inhibition at 10 µM": 93.8}
{"compound": "Cc1cc(C)c(S(=O)(=O)NC(CC(C)C)C(=O)NO)c(C)c1 (stereo not drawn) [T-15]", "unit.of.measure": "%", "inhibition at 10 µM": 34.8}

Data credit: patent EP4692062A1
